For each of the compounds below, state its Papp A→B at 90 min, 50 µM.
method_description: Transport in the human intestinal Caco-2 cell monolayer model
Assay type: in vitro ADME
study_conditions: human, Caco-2, values as stated in text

Challenge: Reported Papp A→B at 90 min, 50 µM, compound CC(C)NCC(O)COc1cccc2ccccc12 (stereo not shown) [propranolol, reference compound] : ____
Response given: 22.9 ×10⁻⁶ cm/s

Challenge: Reported Papp A→B at 90 min, 50 µM, compound COc1cc(/C=C/C(=O)OC(C)C)ccc1O [Compound 6, isopropylferulate] : ____
Response given: > 10 ×10⁻⁶ cm/s

Challenge: Reported Papp A→B at 90 min, 50 µM, compound CC/C(C)=C/CCOC(=O)/C=C/c1ccc(O)c(OC)c1 [Compound 1, 4-methyl-3-trans-hexenylferulate] : ____
Response given: < 1 ×10⁻⁶ cm/s

Challenge: Reported Papp A→B at 90 min, 50 µM, compound COc1cc(/C=C/C(=O)OC2CC3CCC2(C)C3(C)C)ccc1O (stereo not drawn) [Compound 5, (−)-bornylferulate] : ____
Response given: < 0.1 ×10⁻⁶ cm/s

---

System: Caco-2 cell monolayer
method_description: Transport in the human intestinal Caco-2 cell monolayer model
Assay type: in vitro ADME
study_conditions: assigned from Papp AP→BL against propranolol and atenolol
test_readout: absorption assignment

{"columns": ["compound", "test_readout", "measured_result"],
 "data": [
  ["CC/C(C)=C/CCOC(=O)/C=C/c1ccc(O)c(OC)c1 [Compound 1, 4-methyl-3-trans-hexenylferulate]", "absorption assignment", "poorly absorbed"],
  ["COc1cc(/C=C/C(=O)OCCc2ccccc2)ccc1O [Compound 9, phenethylferulate]", "absorption assignment", "poorly absorbed"],
  ["COc1ccc(C(=O)OCCc2ccc(O)cc2)cc1 [Compound 4, p-hydroxyphenethyl anisate]", "absorption assignment", "poorly absorbed"]
]}

---

method_description: Stability of the phenolic acid esters in HPLC method validation (Table S1)
Type: physicochemical
study_conditions: QC 25 μM
test_readout: Stability (%)
Unit % implied. Number only.

Challenge: Reported Stability, compound COc1ccc(C(=O)OCCc2ccc(O)cc2)cc1 [Compound 4, p-hydroxyphenethyl anisate] : ____
Response given: 100.74

Challenge: Reported Stability, compound COc1cc(/C=C/C(=O)OC2CC3CCC2(C)C3(C)C)ccc1O (stereo not drawn) [Compound 5, (−)-bornylferulate] : ____
Response given: 94.56

Challenge: Reported Stability, compound COc1cc(/C=C/C(=O)OC(C)C)ccc1O [Compound 6, isopropylferulate] : ____
Response given: 102.02

Challenge: Reported Stability, compound COc1cc(/C=C/C(=O)OCCc2ccccc2)ccc1O [Compound 9, phenethylferulate] : ____
Response given: 93.71

Challenge: Reported Stability, compound COc1ccc(CCOC(=O)/C=C/c2ccc(O)c(OC)c2)cc1 [Compound 8, 4-methoxyphenethylferulate] : ____
Response given: 95.45

Challenge: Reported Stability, compound CC/C(C)=C/CCOC(=O)/C=C/c1ccc(O)c(OC)c1 [Compound 1, 4-methyl-3-trans-hexenylferulate] : ____
Response given: 95.65

Challenge: Reported Stability, compound O=C(OCc1ccccc1)c1ccccc1O [Compound 2, benzylsalicylate] : ____
Response given: 94.57

---

method_description: Stability of the phenolic acid esters in HPLC method validation (Table S1)
Format: physicochemical
study_conditions: QC 50 μM
For each of the compounds below, state its Stability.
Answer shape: numeric part, then the unit.

Challenge: Reported Stability, compound O=C(OCc1ccccc1)c1ccccc1O [Compound 2, benzylsalicylate] : ____
Response given: 97.25±2.09%

Challenge: Reported Stability, compound COc1cc(/C=C/C(=O)OCCc2ccccc2)ccc1O [Compound 9, phenethylferulate] : ____
Response given: 101.99±1.32%

Challenge: Reported Stability, compound COc1ccc(C(=O)OCCc2ccc(O)cc2)cc1 [Compound 4, p-hydroxyphenethyl anisate] : ____
Response given: 95.85±2.01%

Challenge: Reported Stability, compound CC/C(C)=C/CCOC(=O)/C=C/c1ccc(O)c(OC)c1 [Compound 1, 4-methyl-3-trans-hexenylferulate] : ____
Response given: 92.25±1.63%

Challenge: Reported Stability, compound COc1cc(/C=C/C(=O)OC2CC3CCC2(C)C3(C)C)ccc1O (stereo not drawn) [Compound 5, (−)-bornylferulate] : ____
Response given: 95.85±1.01%

Challenge: Reported Stability, compound COc1cc(/C=C/C(=O)OC(C)C)ccc1O [Compound 6, isopropylferulate] : ____
Response given: 102.05±1.39%

Challenge: Reported Stability, compound COc1ccc(CCOC(=O)/C=C/c2ccc(O)c(OC)c2)cc1 [Compound 8, 4-methoxyphenethylferulate] : ____
Response given: 102.58±1.54%
